Test: Selectivity index, ratio of compound concentration for cell killing activity in human MCF10A cells to compound concentration for cell killing activity in human PC3 cells
Assay type: toxicity, cell-based
Conditions: MCF10A cells versus PC3 cells, read-out: Selectivity Index
MEASURED ENDPOINT: selectivity ratio

Query block: Dear colleague, I am looking for the recorded selectivity ratio of the following compound: COc1ccc2nc3cc(Cl)ccc3c(NCCCN3C(=O)CCSC3c3cccs3)c2c1 (stereo unspecified)
Result block: 3 to 6

* * *

Assay: Selectivity index, ratio of compound concentration for cell killing activity in human MCF10A cells to compound concentration for cell killing activity in human BT474 cells
Type: toxicity, cell-based
Settings: MCF10A cells versus BT474 cells, read-out: Selectivity Index
MEASURED ENDPOINT: selectivity ratio

Query block: Dear colleague, I am looking for the recorded selectivity ratio of the following compound: COc1ccc2nc3cc(Cl)ccc3c(NCCCN3C(=O)CCSC3c3cccs3)c2c1 (stereo unspecified)
Result block: 3 to 6

* * *

Experiment: Selectivity index, ratio of compound concentration for cell killing activity in human MCF10A cells to compound concentration for cell killing activity in human MCF7 cells
Type: toxicity, cell-based
Settings: MCF10A cells versus MCF7 cells, read-out: Selectivity Index
MEASURED ENDPOINT: selectivity ratio

Query block: Dear colleague, I am looking for the recorded selectivity ratio of the following molecule: COc1ccc2nc3cc(Cl)ccc3c(NCCCN3C(=O)CCSC3c3cccs3)c2c1 (stereo unspecified)
Result block: 3 to 6

* * *

Test system: MCF7
Experiment: Antiproliferative activity against human MCF7 cells after 48 hrs by SRB assay
Format: functional, cell-based
Conditions: MCF7, 48 h
Give measured IC50 for each item. Keep answers brief.
Write down the numeric answer in µM and omit the unit.

Query block: Observed IC50 on MCF7 for COc1ccc2nc3cc(Cl)ccc3c(NCCCN3C(=O)CCSC3c3ccc(F)cc3F)c2c1 (stereo unspecified) , please.
Result block: 3.39

Query block: Observed IC50 on MCF7 for COc1ccc2nc3cc(Cl)ccc3c(NCCCN3C(=O)CCSC3c3ccncc3)c2c1 (stereo unspecified) , please.
Result block: 16.2

Query block: Observed IC50 on MCF7 for COc1ccc2nc3cc(Cl)ccc3c(NCCCN3C(=O)CCSC3c3c(Cl)cccc3Cl)c2c1 (stereo unspecified) , please.
Result block: 4.41

Query block: Observed IC50 on MCF7 for COc1ccc2nc3cc(Cl)ccc3c(NCCCN3C(=O)CCSC3c3c(F)cccc3F)c2c1 (stereo unspecified) , please.
Result block: 3.81

Query block: Observed IC50 on MCF7 for CCN(CC)CCCC(C)Nc1ccnc2cc(Cl)ccc12 (stereo unspecified) [CHLOROQUINE PHOSPHATE] , please.
Result block: 38.4

Query block: Observed IC50 on MCF7 for COc1ccc2nc3cc(Cl)ccc3c(NCCCN3C(=O)CCSC3c3ccc(Cl)cc3)c2c1 (stereo unspecified) , please.
Result block: 3.4

Query block: Observed IC50 on MCF7 for COc1ccc2nc3cc(Cl)ccc3c(NCCCN3C(=O)CCSC3c3ccc(F)cc3)c2c1 (stereo unspecified) , please.
Result block: 4.97

Query block: Observed IC50 on MCF7 for COc1ccc2nc3cc(Cl)ccc3c(NCCCN3C(=O)CCSC3c3ccc[nH]3)c2c1 (stereo unspecified) , please.
Result block: 1.66

Query block: Observed IC50 on MCF7 for COc1ccc2nc3cc(Cl)ccc3c(NCCCN3C(=O)CCSC3c3ccco3)c2c1 (stereo unspecified) , please.
Result block: 3.57

Query block: Observed IC50 on MCF7 for COc1ccc2nc3cc(Cl)ccc3c(NCCCN3C(=O)CCSC3c3ccc(N(c4ccccc4)c4ccccc4)cc3)c2c1 (stereo unspecified) , please.
Result block: 1.85

Query block: Observed IC50 on MCF7 for COc1ccc2nc3cc(Cl)ccc3c(NCCCN3C(=O)CCSC3c3ccc(Br)cc3)c2c1 (stereo unspecified) , please.
Result block: 31.3

Query block: Observed IC50 on MCF7 for COc1ccc2nc3cc(Cl)ccc3c(NCCCN3C(=O)CCSC3c3ccccc3[N+](=O)[O-])c2c1 (stereo unspecified) , please.
Result block: 0.99

Query block: Observed IC50 on MCF7 for COc1ccc2nc3cc(Cl)ccc3c(NCCCN3C(=O)CCSC3c3ccccc3Br)c2c1 (stereo unspecified) , please.
Result block: 39.3

Query block: Observed IC50 on MCF7 for COc1ccc2nc3cc(Cl)ccc3c(NCCCN3C(=O)CCSC3c3ccnc4ccccc34)c2c1 (stereo unspecified) , please.
Result block: 8.94

Query block: Observed IC50 on MCF7 for COc1ccc2nc3cc(Cl)ccc3c(NCCCN3C(=O)CCSC3c3ccccc3Cl)c2c1 (stereo unspecified) , please.
Result block: 15.3

Query block: Observed IC50 on MCF7 for COc1ccc2nc3cc(Cl)ccc3c(NCCCN3C(=O)CCSC3c3ccc(N(C)C)cc3)c2c1 (stereo unspecified) , please.
Result block: 3.09

* * *

Assay: Selectivity index, ratio of compound concentration for cell killing activity in human MCF10A cells to compound concentration for cell killing activity in human CAMA1 cells
Assay type: toxicity, cell-based
Settings: MCF10A cells versus CAMA1 cells, read-out: Selectivity Index
MEASURED ENDPOINT: selectivity ratio

Query block: Dear colleague, I am looking for the recorded selectivity ratio of the following compound: COc1ccc2nc3cc(Cl)ccc3c(NCCCN3C(=O)CCSC3c3cccs3)c2c1 (stereo unspecified)
Result block: 3 to 6

* * *

Assay: Selectivity index, ratio of compound concentration for cell killing activity in human MCF10A cells to compound concentration for cell killing activity in human MDA-MB-453 cells
Type: toxicity, cell-based
Conditions: MCF10A cells versus MDA-MB-453 cells, read-out: Selectivity Index
MEASURED ENDPOINT: selectivity ratio

Query block: Dear colleague, I am looking for the recorded selectivity ratio of the following compound: COc1ccc2nc3cc(Cl)ccc3c(NCCCN3C(=O)CCSC3c3cccs3)c2c1 (stereo unspecified)
Result block: 3 to 6

* * *

Experiment: Selectivity index, ratio of compound concentration for cell killing activity in human MCF10A cells to compound concentration for cell killing activity in human MDA-MB-231 cells
Type: toxicity, cell-based
Details: MCF10A cells versus MDA-MB-231 cells, read-out: Selectivity Index
MEASURED ENDPOINT: selectivity ratio

Query block: Dear colleague, I am looking for the recorded selectivity ratio of the following molecule: COc1ccc2nc3cc(Cl)ccc3c(NCCCN3C(=O)CCSC3c3cccs3)c2c1 (stereo unspecified)
Result block: 3 to 6

* * *

Experiment: Selectivity index, ratio of compound concentration for cell killing activity in human 184B5 cells to compound concentration for cell killing activity in human BT20 cells
Format: toxicity, cell-based
Details: 184B5 cells versus BT20 cells, read-out: Selectivity Index
MEASURED ENDPOINT: selectivity ratio

Query block: Dear colleague, I am looking for the recorded selectivity ratio of the following compound: COc1ccc2nc3cc(Cl)ccc3c(NCCCN3C(=O)CCSC3c3cccs3)c2c1 (stereo unspecified)
Result block: 3 to 6

* * *

Assay: Selectivity index, ratio of compound concentration for cell killing activity in human MCF10A cells to compound concentration for cell killing activity in human MDA-MB-468 cells
Assay type: toxicity, cell-based
Details: MCF10A cells versus MDA-MB-468 cells, read-out: Selectivity Index
MEASURED ENDPOINT: selectivity ratio

Query block: Dear colleague, I am looking for the recorded selectivity ratio of the following compound: COc1ccc2nc3cc(Cl)ccc3c(NCCCN3C(=O)CCSC3c3cccs3)c2c1 (stereo unspecified)
Result block: 3 to 6

* * *

Test: Selectivity index, ratio of compound concentration for cell killing activity in human 184B5 cells to compound concentration for cell killing activity in human LNCAP cells
Type: toxicity, cell-based
Details: 184B5 cells versus LNCAP cells, read-out: Selectivity Index
MEASURED ENDPOINT: selectivity ratio

Query block: Dear colleague, I am looking for the recorded selectivity ratio of the following compound: COc1ccc2nc3cc(Cl)ccc3c(NCCCN3C(=O)CCSC3c3cccs3)c2c1 (stereo unspecified)
Result block: 3 to 6

* * *

Test: Selectivity index, ratio of compound concentration for cell killing activity in human MCF10A cells to compound concentration for cell killing activity in human A549 cells
Assay type: toxicity, cell-based
Conditions: MCF10A cells versus A549 cells, read-out: Selectivity Index
MEASURED ENDPOINT: selectivity ratio

Query block: Dear colleague, I am looking for the recorded selectivity ratio of the following molecule: COc1ccc2nc3cc(Cl)ccc3c(NCCCN3C(=O)CCSC3c3cccs3)c2c1 (stereo unspecified)
Result block: 3 to 6

* * *

Assay: Selectivity index, ratio of compound concentration for cell killing activity in human 184B5 cells to compound concentration for cell killing activity in human MCF7 cells
Type: toxicity, cell-based
Conditions: 184B5 cells versus MCF7 cells, read-out: Selectivity Index
MEASURED ENDPOINT: selectivity ratio

Query block: Dear colleague, I am looking for the recorded selectivity ratio of the following compound: COc1ccc2nc3cc(Cl)ccc3c(NCCCN3C(=O)CCSC3c3cccs3)c2c1 (stereo unspecified)
Result block: 3 to 6

* * *

Assay: Selectivity index, ratio of compound concentration for cell killing activity in human 184B5 cells to compound concentration for cell killing activity in human NCI-H1975 cells
Assay type: toxicity, cell-based
Conditions: 184B5 cells versus NCI-H1975 cells, read-out: Selectivity Index
MEASURED ENDPOINT: selectivity ratio

Query block: Dear colleague, I am looking for the recorded selectivity ratio of the following molecule: COc1ccc2nc3cc(Cl)ccc3c(NCCCN3C(=O)CCSC3c3cccs3)c2c1 (stereo unspecified)
Result block: 3 to 6

Cited source: ChEMBL document CHEMBL4138245
